Assay: small molecules captured by biotinylated probe aFST – biochemical, small-molecule microarray, fluorescence 635/667, stem cell growth factor project, primary screen (AID 1086);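 note: score merges 667 nm fluorescence with signal-to-noise of each printed compound spot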
Conditions: higher = more signal
Attribute Measured: composite z-score
Numbers only.

Some solved cases for reference:
CCCC[C@@H](O)C1=C(COC)C[C@H]2C(=O)N(Cc3ccccc3)C(=O)[C@H]2[C@H]1CO
-0.173
COc1cc2c(cc1O)C(c1ccc(CN3CCCC3)cc1)N(Cc1cc3c(cc1Br)OCO3)CC2 (stereo not drawn)
0.296

Consider the additional compound presented here.
// query Give its composite z-score value. Item: CC(C)c1ccc(NN2C(C(O)c3ccc(F)cc3)C=CC3C(=O)N(c4ccccc4)C(=O)C32)cc1 (stereo not drawn)
// result 1.25

----------
For each record, write down the corresponding composite z-score.
Test system: wheat germ agglutinin (Triticum aestivum), Alexa647-labelled
Assay: Alexa647-WGA lectin binding to printed small molecules – biochemical, small-molecule microarray, 635/667 nm fluorescence, artefact control for SMM control-protein annotation, profiling panel (AID 1140);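 note: score merges 667 nm feature emission with signal to noise over triplicate slides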
Conditions: WGA-A647 binding, 635 nm fluorescence, higher = more signal
One number for each entry.

Some solved cases for reference:
CCCCC(CC)C(O)C1C=CC2C(=O)N(c3ccccc3)C(=O)C2N1Nc1ccccc1F (centres undefined)
0.357
C=CCNC(=O)[C@@H]1[C@H]2C(=O)O[C@H](c3ccccc3)[C@H](c3ccccc3)N2[C@H](c2ccc(O)cc2)[C@@]12C(=O)N(C(=O)OCCOC)c1ccc(C#CC3=CCCCC3)cc12
0.729
CCCC[C@@H]1C[C@H]1[C@@H](NC(=O)c1cccs1)c1ccccc1C(F)(F)F
0.839

Consider the additional molecule presented here.
// query What measured composite z-score is associated with `COc1cccc(C)c1NC(=O)O[C@H]1[C@H](OC(=O)Nc2ccc3c(c2)OCO3)[C@@H](OC(=O)Nc2ccc3c(c2)OCO3)[C@@H](OC)O[C@@H]1CO` on wheat germ agglutinin (Triticum aestivum), Alexa647-labelled?
// result 1.15

----------
Assay: small molecules captured by biotinylated probe aFGF2 – biochemical, small-molecule microarray, fluorescence 635/667, stem cell growth factor project, primary screen (AID 1067);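 note: measures binding of biotinylated aFGF2 protein to printed compounds on slides; z-score merges feature fluorescence and signal-to-noise across triplicate slides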
Conditions: higher = more signal
Attribute Measured: composite z-score
Give bare numbers.

Give one value of composite z-score per listed molecule.
1. C=C[C@H](C)[C@H](OC(=O)Nc1ccc(SC)cc1)c1ccc(OCCO)cc1
2. O=C1C2C=CC(C(O)C3CC=CCC3)N(Nc3ccccc3)C2C(=O)N1c1ccccc1 (configuration not stated)
3. CC1=C2[C@@H](CCc3ccccc3)OB(O)C[C@@H]2[C@@H]2C(=O)N(C)C(=O)[C@@H]2C1
4. CO[C@H]1O[C@H](CO)[C@@H](OC(=O)Nc2ccc(Br)cc2)[C@@H]2OC(=O)[C@@H](Cc3ccccc3)C/C=C/C[C@H](Cc3ccccc3)C(=O)O[C@@H]12
5. CN(C)C(=O)[C@]1(CCC(=O)OC(C)(C)C)N=C(c2ccc(OCCCO)cc2)O[C@@H]1c1ccccc1CN=[N+]=[N-]
6. CN(C)C(=O)[C@@]1(Cc2ccccc2)N=C(c2ccc(OCCCO)cc2)O[C@H]1c1ccccc1
7. C=C(COC)C(=O)CC[C@@H](OC(C)=O)c1cccc(OCCO)c1
8. O=C1N(CCS(=O)(=O)c2ccccc2)c2ccccc2[C@H]2OC(c3ccc(OCCCO)cc3)=N[C@@]12Cc1ccccc1

// result
1: -0.1; 2: 0.122; 3: -0.104; 4: -0.07; 5: 0.485; 6: 0.133; 7: -0.085; 8: 0.0918

Give one value of composite z-score per listed molecule.
1. COC(=O)[C@@]1(Cc2ccccc2)[C@H]2c3cc(C(=O)N(C)C)n(Cc4ccc(C)o4)c3C[C@H]2CN1C(=O)c1ccccc1
2. CC(=O)N1CC2(CC2)CC1c1ccccc1 (configuration not stated)
3. O=C(c1ccccc1)N1C(=O)[C@]2(Cc3ccccc31)N=C(c1ccc(OCCCO)cc1)O[C@@H]2c1ccccc1
4. CCOC(=O)C1=CC[C@@H](c2ccccc2F)N(S(=O)(=O)c2ccc(C)cc2)[C@H]1c1ccccc1
5. CC[C@@H]1O[Si](C(C)C)(C(C)C)c2c1cc(-c1cc(C)c(OC)c(C)c1)nc2-c1ccc(Oc2ccccc2)cc1

// result
[0.632, -0.14, -0.061, -0.0253, -0.0881]

Give one value of composite z-score per listed molecule.
1. CCCCC(CC)C(O)C1C=CC2C(=O)N(c3ccccc3)C(=O)C2N1Nc1ccc(C#N)cc1 (configuration not stated)
2. COc1ccccc1CN1C(=O)c2ccccc2[C@](Cc2ccccc2I)(C(=O)O)[C@@H]1c1ccc(CO)cc1
3. COc1cc2c(cc1O)C(c1ccc(CN3CCCC3)cc1)N(Cc1cc3c(cc1Br)OCO3)CC2 (configuration not stated)

// result
0.332
0.0043
-0.0351

Give one value of composite z-score per listed molecule.
1. O=C1C2C=CC(C(O)c3cccc(O)c3)N(Nc3ccc([N+](=O)[O-])cc3)C2C(=O)N1c1ccccc1 (configuration not stated)
2. C[C@@H]1NC(=O)[C@@H](Cc2ccccc2)NC(=O)[C@@]23C(=O)N[C@@H](Cc4ccccc4)C2[C@H](C)[C@@]2(C)O[C@H]2C3/C=C/C/C=C\CNC1=O (some centres not stated)
3. CC1CC/C=C\[C@H]2OC34C=CCN(c5ccc6ccccc6c5)C(=O)[C@H]3N(CCCO)C(=O)[C@@H]4C2C(=O)O1 (some centres not stated)
4. CCCCN1CC=CC23O[C@@H]4/C=C\CCCOC(=O)C4[C@H]2C(=O)N(CCO)[C@@H]3C1=O (some centres not stated)
5. CC(C)NC(=O)[C@@]1(C)c2ccccc2C(=O)N(Cc2ccc(OC(F)(F)F)cc2)[C@H]1c1ccc(CO)cc1

// result
[-0.0133, -0.149, -0.188, -0.19, -0.167]

Give one value of composite z-score per listed molecule.
1. O=C1O[C@@H](c2ccccc2)[C@@H](c2ccccc2)N2[C@@H](c3ccc(O)cc3)[C@]3(C(=O)Nc4ccc(C#CCCO)cc43)[C@@H](C(=O)N3CCN(c4ncccn4)CC3)[C@H]12
2. COCCOC(=O)N1C(=O)[C@@]2(c3ccccc31)[C@H](C(=O)NC[C@H](O)c1ccccc1)[C@H]1C(=O)O[C@H](c3ccccc3)[C@H](c3ccccc3)N1[C@@H]2c1ccc(O)cc1
3. COC(=O)[C@@]1(Cc2ccc(OC)cc2)[C@H]2c3cc(C(=O)N4CCCC4)n(CCc4c[nH]c5ccc(O)cc45)c3C[C@H]2CN1C(=O)c1ccccc1
4. COc1cc2c(cc1O)C(C1CC1)N(Cc1cccc(OC(F)(F)F)c1)CC2 (configuration not stated)
5. COc1ccc([Si](C)(C)[C@@H]2[C@@H](CCO)O[C@]3(C(=O)N(Cc4cccc(NC(=O)[C@H](C)O)c4)c4ccccc43)[C@H]2C)cc1

// result
-0.265
0.0017
0.155
-0.101
-0.053

// query Give its composite z-score value. Item: CC(C)C(O)C1C=CC2C(=O)N(c3ccccc3)C(=O)C2N1Nc1ccccc1 (configuration not stated)
// result 0.0293

----------
For each record, write down the corresponding z-score.
Assay: blockers of DNA damage checkpoint Chk1 activation – imaging, HeLa, hydroxyurea, phospho-Chk1 antibody, percent positive cells, primary screen (AID 1186)
Settings: hydroxyurea-induced phospho-Chk1 immunofluorescence imaging, higher = more signal
One number for each entry.

Some solved cases for reference:
COc1ccc(C#Cc2ccc3c(c2)[C@]2(C(=O)N3)[C@H](C(=O)O)[C@H]3C(=O)O[C@H](c4ccccc4)[C@H](c4ccccc4)N3[C@@H]2c2ccc(O)cc2)cc1
-0.366
CCOC(=O)C[C@H]1[C@H](OC(=O)c2ccc(-c3ccccc3)cc2)[C@@H](NC(=O)CC(C)C)c2cc(OCCCO)ccc2N1C(=O)c1ccc2ccccc2n1
0.319
CO[C@H]1O[C@H](CO)[C@@H](OC(=O)Nc2ccc(Br)cc2)[C@@H]2OC(=O)[C@@H](Cc3ccccc3)C/C=C/C[C@H](Cc3ccccc3)C(=O)O[C@@H]12
-0.324
CCCC[C@@H](O)C1=C(COC)C[C@H]2C(=O)N(C)C(=O)[C@H]2[C@H]1CO
-0.476
CCCCC[C@H]1OC[C@@]23C=C(Br)[C@@H](CC12)[C@@]1(CO1)C3=O (stereo partly drawn)
-0.556
CCCC#C[Si](O[C@H](CC)c1cn([C@H](C)c2ccccc2)nn1)(C(C)C)C(C)C
-0.673

Give one value of z-score per listed compound.
1. Cc1ccc(N2C(=O)c3ccccc3[C@@H](C(=O)NCCCN(C)C)[C@@H]2c2ccc(CO)cc2)nc1
2. CC(C)c1ccc(NN2C(C(O)c3ccc(C#N)cc3)C=CC3C(=O)N(c4ccccc4)C(=O)C32)cc1 (stereo not drawn)

// result
1. 0.026
2. 0.879

Give one value of z-score per listed compound.
1. COCCOC(=O)N1C(=O)[C@@]2(c3ccccc31)[C@H](c1ccc(O)cc1)N1[C@H](c3ccccc3)[C@H](c3ccccc3)OC(=O)[C@H]1[C@@H]2C(=O)N1CCN(c2ncccn2)CC1
2. CN(C)C(=O)[C@]1(Cc2ccccc2CN=[N+]=[N-])N=C(c2ccc(OCCCO)cc2)O[C@@H]1c1ccccc1
3. NC(=O)NCC#Cc1ccc2c(c1)[C@]1(C(=O)N2)[C@H](c2ccccc2OCCO)N2[C@H](c3ccccc3)[C@H](c3ccccc3)OC(=O)[C@H]2[C@@H]1C(=O)O
4. O=C1C[C@]2(c3ccc([N+](=O)[O-])cc3)C(=O)N(C3CC3)c3cc(CO)ccc3[C@H]2N1CC12CC3CC(CC(C3)C1)C2
5. Cc1ccc(F)cc1S(=O)(=O)N[C@@H]1CCN(Cc2ccc(Br)cc2)C1

// result
[0.0666, -0.52, 0.109, -0.0994, 0.0663]
